System: MCF-7/mdr
Assay: MTS cytotoxicity assay, MCF-7/mdr
Assay type: cell-based, human
Conditions: IC50 resistant / IC50 sensitive line; doxorubicin resistance
Experimental: Tumor cells were plated in 96-well flat-bottom microtitration plates (Nunc, Dutscher, Brumath, France) and incubated at 37° C. for 24 hours before treatment in 190 μl of drug-free culture medium supplemented or not with 10% FBS for adherent or suspension growing cell lines, respectively. […] Three independent experiments were performed, each concentration being tested in quadruplicate. […] At the end of treatments, the cytotoxic activity was evaluated by a MTS assay (see § 3.3.). […]
Non-standard residues stand in square brackets, D forms with d. Residues, ends and D or L forms follow the SMILES beside them. Dip = N[C@H](C(=O)O)C(c1ccccc1)c1ccccc1
Reported property: Resistance index (RI), MCF-7/mdr

Record N=C(N)NCCC[C@H](NC(=O)[C@H](Cc1c[nH]c2ccccc12)NC(=O)[C@H](Cc1c[nH]c2ccccc12)NC(=O)[C@H](CCCNC(=N)N)NC(=O)[C@H](CCCNC(=N)N)NC(=O)[C@@H](NC(=O)[C@H](Cc1c[nH]c2ccccc12)NC(=O)[C@H](CCCNC(=N)N)NC(=O)[C@@H](N)CCCNC(=N)N)C(c1ccccc1)c1ccccc1)C(N)=O [LTX-320, R-R-W-Dip-R-R-W-W-R-NH2] (H-RRW[Dip]RRWWR-NH2; N-terminus assumed) ; system MCF-7/mdr; Resistance index (RI), MCF-7/mdr = 1.19

As a next step, examine the molecule that follows.
Record NCCCC[C@H](NC(=O)[C@H](Cc1c[nH]c2ccccc12)NC(=O)[C@H](CCCCN)NC(=O)[C@H](CCCCN)NC(=O)[C@@H](NC(=O)[C@H](Cc1c[nH]c2ccccc12)NC(=O)[C@H](CCCCN)NC(=O)[C@H](CCCCN)NC(=O)[C@@H](N)Cc1c[nH]c2ccccc12)C(c1ccccc1)c1ccccc1)C(N)=O [LTX-302, W-K-K-W-Dip-K-K-W-K-NH2] (H-WKKW[Dip]KKWK-NH2; N-terminus assumed) ; system MCF-7/mdr; Resistance index (RI), MCF-7/mdr = 1.23
